// data source = patent US20150307625A1

target: T1, human activated Protein C (human, UniProt P04070 43-461); assay: direct ELISA, aPC coated, hIgG1
T1 construct: also called human aPC; hAPC

binder	unit-string	EC50
T46J23-hIgG1 (antibody, V domains shown, also called T46J23-IgG) VH: EVQLLESGGGLVQPGGSLRLSCAASGFTFGNHWMTWVRQAPGKGLEWVSGVSWNGSRTHYADSVKGRFTISRDNSKNTLYLQMNSLRAEDTAVYYCALTGRSGWMRFPNWFDPWGQGTLVTVTS VL: LTQPPSASGTPGQRVTISCTGTSSNIGAGYDVHWYQQLPGTAPKLLIYDNNNRPSGVPDRFSGSKSGTSASLAISGLRSEDEADYYCAAWDDSLNGVVFGGGTKLTVLG	nM	2.18
C7I7 hIgG1 (antibody, V domains shown, also called C717-IgG) VH: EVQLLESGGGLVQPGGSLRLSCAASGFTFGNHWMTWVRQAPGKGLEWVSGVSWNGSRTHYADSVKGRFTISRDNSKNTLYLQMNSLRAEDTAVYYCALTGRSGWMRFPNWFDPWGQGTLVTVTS VL: QSVLTQPPSASGTPGQRVTISCTGSSSNIGAGYDVHWYQQLPGTAPKLLIYGNSNRPSGVPDRFSGSKSGTSASLAISGLRSEDEAAYYCSSYVGSDLVVFGGGTKLTVLG	nM	2.66
R41E3 hIgG1 (antibody, V domains shown, also called R41E3-IgG) VH: EVQLLESGGGLVQPGGSLRLSCAASGFTFNNYAMTWVRQAPGKGLEWVSGVSWNGSRTHYADSVKGRFTISRDNSKNTLYLQMNSLRAEDTAVYYCARADSSSAGRWAGSLDYWGQGTLVTVTS VL: LTQPPSASGTPGQRVTISCSGSSSNIGNNAVNWYQQLPGTAPKLLIYSNNQRPSGVPDRFSGSKSGTSASLAISGLRSEDEADYYCSSYTSSSTHVVFGGGTKLTVLG	nM	1.76
